Field: EC50. Provide a value for each of the molecules that follow.
Target: hα7-wt nAChR (Homo sapiens, UniProt P36544)
Construct: expressed in transfected cells
Sequence (P36544 23-502): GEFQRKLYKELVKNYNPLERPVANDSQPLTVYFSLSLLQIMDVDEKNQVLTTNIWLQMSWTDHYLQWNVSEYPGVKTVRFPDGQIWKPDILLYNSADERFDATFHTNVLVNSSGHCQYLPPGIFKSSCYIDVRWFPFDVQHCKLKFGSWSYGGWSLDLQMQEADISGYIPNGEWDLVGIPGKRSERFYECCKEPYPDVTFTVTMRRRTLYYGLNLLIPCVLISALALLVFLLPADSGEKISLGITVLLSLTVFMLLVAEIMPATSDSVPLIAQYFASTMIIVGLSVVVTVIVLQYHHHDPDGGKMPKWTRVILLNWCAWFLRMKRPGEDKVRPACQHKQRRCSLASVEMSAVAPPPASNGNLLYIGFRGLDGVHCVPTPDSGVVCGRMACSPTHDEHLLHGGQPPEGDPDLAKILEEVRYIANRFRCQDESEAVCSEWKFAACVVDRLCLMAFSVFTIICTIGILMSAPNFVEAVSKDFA
Test: Ca2+ flux imaging (FDSS) (Protocol B), PAM activity with choline as agonist
Format: cell-based
Settings: "<5" = no top plateau at maximal concentration
One number for each entry, in µM.

Answered cases to consult:
- Molecule: "Cc1cc(-c2nc(Nc3ccc(F)c(C(F)(F)F)c3)nn2CC(=O)N2CCCC2)ccn1 [Compound 124]"
  Output Unit: "µM"
  EC50: 2.51
- Molecule: "CNc1ccc(-c2nc(Nc3ccc(F)c(C(F)(F)F)c3)nn2CCO)cn1 [Compound 92]"
  Output Unit: "µM"
  EC50: 3.16
- Molecule: "CN(C)C(=O)CCn1nc(Nc2ccc(F)c(C(F)(F)F)c2)nc1-c1cccnc1 [Compound 125]"
  Output Unit: "µM"
  EC50: 0.631
- Molecule: "CN(C)C(=O)CCn1nc(Nc2ccc(F)c(F)c2)nc1-c1ccc(C(F)(F)F)nc1 [Compound 191]"
  Output Unit: "µM"
  EC50: 1.26
- Molecule: "CNC(=O)Cn1nc(Nc2ccc3c(c2)OC(F)(F)O3)nc1-c1ccnc(C)c1 [Compound 200]"
  Output Unit: "µM"
  EC50: 2

Now turn to the next molecule.
Enquiry: Give EC50 for the following molecule: CCc1cc(-c2nc(Nc3cccc(C(F)(F)F)c3)nn2CCO)ccn1 [Compound 70]
Return: 2

* * *

Target: hα7-wt nAChR (Homo sapiens)
Construct: expressed in transfected cells
Assay: Ca2+ flux imaging (FDSS) (Protocol B), PAM activity with choline as agonist
Assay type: cell-based
Details: "<5" = no top plateau at maximal concentration
Procedure: […] PAM activity was detected in real time by applying the compounds to be tested to the loaded cells along with a α7 nicotinic receptor agonist during constant monitoring of cellular fluorescence in a FDSS. […] A control response to choline was calculated on each plate from the difference in peak in fluorescence in wells receiving either choline or assay buffer alone. […]
pEC50: −log10 of the molar value.
Rule: Met for pEC50 not less than 6, Not met for anything less.

Use these answered entries as a reference point.
- Test Smiles: "CN(C)C(=O)CCn1nc(Nc2ccc3c(c2)OC(F)(F)O3)nc1-c1ccncc1F"
  Category Label: "Met"
- Test Smiles: "C[C@H](O)Cn1nc(Nc2ccc(F)c(C(F)(F)F)c2)nc1-c1ccnc(C2CC2)c1"
  Category Label: "Not met"
- Test Smiles: "Cc1noc(CCn2nc(Nc3ccc(F)c(C(F)(F)F)c3)nc2-c2ccncc2)n1"
  Category Label: "Not met"

Kindly consider the entry below.
Enquiry: Determine whether this compound has pEC50 no lower than 6: Cc1cc(-c2nc(Nc3ccc4c(c3)OC(F)(F)O4)nn2CCC(=O)N(C)C)cc(C)n1
Return: Met

* * *

Target: hα7-wt nAChR (Homo sapiens)
Construct: expressed in transfected cells
Assay: Ca2+ flux imaging (FDSS) (Protocol B), PAM activity with choline as agonist
Format: cell-based
Conditions: "<5" = no top plateau at maximal concentration
Note to self: EC50 under 2000 nM means 1 (yes), ties and anything higher get 0 (no).

Use the examples below as a reference point.
- Compound: "CC(C)(C)NC(=O)CCn1nc(Nc2ccc(F)c(C(F)(F)F)c2)nc1-c1ccncc1 [Compound 137]"
  Target Of Assay: "hα7-wt nAChR (Homo sapiens)"
  Category Label: "1 (yes)"
- Compound: "COCCNC(=O)Cn1nc(Nc2cccc(C(F)(F)F)c2)nc1-c1ccc2c(c1)OCCO2 [Compound 82]"
  Target Of Assay: "hα7-wt nAChR (Homo sapiens)"
  Category Label: "1 (yes)"
- Compound: "CNC(=O)Cn1nc(Nc2ccc(F)c(C(F)(F)F)c2)nc1-c1ccncc1OC [Compound 109]"
  Target Of Assay: "hα7-wt nAChR (Homo sapiens)"
  Category Label: "0 (no)"
- Compound: "CNC(=O)Cn1nc(Nc2ccc(F)c(C(F)(F)F)c2)nc1-c1ccnc(C)c1 [Compound 107]"
  Target Of Assay: "hα7-wt nAChR (Homo sapiens)"
  Category Label: "1 (yes)"
- Compound: "CNC(=O)Cn1nc(Nc2cccc(OC(F)(F)F)c2)nc1-c1ccc2c(c1)OCCO2 [Compound 156]"
  Target Of Assay: "hα7-wt nAChR (Homo sapiens)"
  Category Label: "1 (yes)"

Enquiry: Quick check: EC50 of COc1ncccc1-c1nc(Nc2ccc(F)c(C(F)(F)F)c2)nn1CC(=O)NC1CC1 [Compound 121] under 2000 nM?
Return: 0 (no)

Enquiry: Consider the compound CCNc1cc(-c2nc(Nc3ccc4c(c3)OC(F)(F)O4)nn2CC(C)O)ccn1 (centres unmarked) [Compound 199] . Is its EC50 strictly less than 2000 nM?
Return: 0 (no)

Enquiry: In the record for COc1cc(Nc2nc(-c3ccnc(C)c3)n(CCC(=O)N(C)C)n2)ccc1F [Compound 187] , is EC50 less than 2000 nM?
Return: 0 (no)

* * *

Hi! Just check whether melting point is below 200 °C. Below gives y, equal or above gives n.

Enquiry: Answer whether the compound OCCn1nc(Nc2ccc(F)c(C(F)(F)F)c2)nc1-c1ccncc1F has melting point strictly less than 200 °C
Return: y

Enquiry: Given CCNC(=O)Cn1nc(Nc2ccc3c(c2)OC(F)(F)O3)nc1-c1ccnc(C)c1 , is recorded melting point strictly lower than 200 °C?
Return: n

Enquiry: A record lists OCCn1nc(Nc2ccc(F)c(C(F)(F)F)c2)nc1-c1ccncc1 . Is its melting point below 200 °C?
Return: y

* * *

Biological target: hα7-wt nAChR (Homo sapiens, UniProt P36544)
Construct: expressed in transfected cells
Assay: Ca2+ flux imaging (FDSS) (Protocol B), PAM activity with choline as agonist
Assay type: cell-based
Conditions: "<5" = no top plateau at maximal concentration
Observable: pEC50
One number for each entry, as −log10 of the molar value.

Solved cases (8 shown):
- Test Smiles: "CN(C)C(=O)CCn1nc(Nc2cccc(OC(F)(F)F)c2)nc1-c1ccc(N)c(F)c1"
  pEC50: 6.40
- Test Smiles: "OCCn1nc(Nc2ccc(F)c(C(F)(F)F)c2)nc1-c1ccc(C2CC2)nc1"
  pEC50: 6.60
- Test Smiles: "COc1ccc(Nc2nc(-c3ccncc3)n(CCO)n2)cc1C(F)(F)F"
  pEC50: 5.70
- Test Smiles: "CC(C)NC(=O)Cn1nc(Nc2cccc(C(F)(F)F)c2)nc1-c1ccc2c(c1)OCCO2"
  pEC50: 6.70
- Test Smiles: "CC(C)NC(=O)Cn1nc(Nc2cccc(OC(F)(F)F)c2)nc1-c1ccc2c(c1)OCCN2C"
  pEC50: 6.90
- Test Smiles: "CCNC(=O)Cn1nc(Nc2ccc3c(c2)OC(F)(F)O3)nc1-c1ccnc(C)c1"
  pEC50: 5.70
- Test Smiles: "CNC(=O)Cn1nc(Nc2ccc(F)c(C(F)(F)F)c2)nc1-c1ccnc(NC)c1"
  pEC50: 6.10
- Test Smiles: "CN(C)C(=O)CCCn1nc(Nc2ccc(F)c(C(F)(F)F)c2)nc1-c1ccnc(Cl)c1"
  pEC50: 6.10

The following molecules each have a reported value; give each one's pEC50.
1. FCCn1nc(Nc2ccc(F)c(C(F)(F)F)c2)nc1-c1ccc(C2CC2)nc1
2. CCNc1ccc(-c2nc(Nc3cc(F)c(F)cc3F)nn2CCC(=O)N(C)C)cn1
3. CCNC(=O)Cn1nc(Nc2ccc3c(c2)OC(F)(F)O3)nc1-c1ccnc2c1CCC2
4. OCCn1nc(Nc2cccc(C(F)(F)F)c2)nc1-c1ccc(N2CCOCC2)nc1
5. CNC(=O)Cn1nc(Nc2cc(F)cc(F)c2)nc1-c1ccnc(C2CC2)c1

Return:
1. 5.60
2. 6.40
3. 6.20
4. 5.60
5. 5.50

* * *

Biological target: hα7-wt nAChR (Homo sapiens)
Construct: expressed in transfected cells
Assay: Ca2+ flux imaging (FDSS) (Protocol B), PAM activity with choline as agonist
Assay type: cell-based
Conditions: "<5" = no top plateau at maximal concentration
# class 1 = EC50 below 1000 nM (exclusive); class 0 = EC50 at/above 1000 nM

As a guide, the following entries are already answered.
- Compound: "CNC(=O)Cn1nc(Nc2ccc(F)c(C(F)(F)F)c2)nc1-c1ccncc1NC [Compound 114]"
  Category Label: "class 1"
- Compound: "Cc1cc(-c2nc(Nc3cccc(OC(F)(F)F)c3)nn2CC(C)O)ccn1 (stereo not drawn) [Compound 148]"
  Category Label: "class 0"
- Compound: "Cc1cc(-c2nc(Nc3ccc(F)c(C(F)(F)F)c3)nn2C[C@H](C)O)ccn1 [Compound 97]"
  Category Label: "class 0"

Enquiry: Dear colleague, could you confirm whether EC50 of CC(O)Cn1nc(Nc2cccc(OC(F)(F)F)c2)nc1-c1ccnc(C2CC2)c1 (stereo not drawn) [Compound 151] falls below 1000 nM? Thanks.
Return: class 0

Enquiry: Lab log: compare recorded EC50 with 1000 nM; is it strictly lower for COc1cc(-c2nc(Nc3cccc(C(F)(F)F)c3)nn2CCC(=O)N(C)C)cc(Cl)n1 [Compound 84] ?
Return: class 1

Enquiry: In the record for C[C@H](O)Cn1nc(Nc2cc(F)c(F)c(F)c2)nc1-c1ccnc(NC2CC2)c1 [Compound 173] , is EC50 less than 1000 nM?
Return: class 1

Enquiry: A record lists C[C@H](O)Cn1nc(Nc2ccc(F)c(C(F)(F)F)c2)nc1-c1cnc2ccoc2c1 [Compound 106] . Is its EC50 below 1000 nM?
Return: class 0

Enquiry: Is EC50 of CN(C)c1cc(-c2nc(Nc3cccc(C(F)(F)F)c3)nn2CCO)ccn1 [Compound 75] strictly below 1000 nM?
Return: class 0
